system: Recombinant Human Poly(ADP-Ribose) Polymerase (PARP), PARP-1 (Homo sapiens (Human), UniProt P09874)
Sequence (P09874 whole entry): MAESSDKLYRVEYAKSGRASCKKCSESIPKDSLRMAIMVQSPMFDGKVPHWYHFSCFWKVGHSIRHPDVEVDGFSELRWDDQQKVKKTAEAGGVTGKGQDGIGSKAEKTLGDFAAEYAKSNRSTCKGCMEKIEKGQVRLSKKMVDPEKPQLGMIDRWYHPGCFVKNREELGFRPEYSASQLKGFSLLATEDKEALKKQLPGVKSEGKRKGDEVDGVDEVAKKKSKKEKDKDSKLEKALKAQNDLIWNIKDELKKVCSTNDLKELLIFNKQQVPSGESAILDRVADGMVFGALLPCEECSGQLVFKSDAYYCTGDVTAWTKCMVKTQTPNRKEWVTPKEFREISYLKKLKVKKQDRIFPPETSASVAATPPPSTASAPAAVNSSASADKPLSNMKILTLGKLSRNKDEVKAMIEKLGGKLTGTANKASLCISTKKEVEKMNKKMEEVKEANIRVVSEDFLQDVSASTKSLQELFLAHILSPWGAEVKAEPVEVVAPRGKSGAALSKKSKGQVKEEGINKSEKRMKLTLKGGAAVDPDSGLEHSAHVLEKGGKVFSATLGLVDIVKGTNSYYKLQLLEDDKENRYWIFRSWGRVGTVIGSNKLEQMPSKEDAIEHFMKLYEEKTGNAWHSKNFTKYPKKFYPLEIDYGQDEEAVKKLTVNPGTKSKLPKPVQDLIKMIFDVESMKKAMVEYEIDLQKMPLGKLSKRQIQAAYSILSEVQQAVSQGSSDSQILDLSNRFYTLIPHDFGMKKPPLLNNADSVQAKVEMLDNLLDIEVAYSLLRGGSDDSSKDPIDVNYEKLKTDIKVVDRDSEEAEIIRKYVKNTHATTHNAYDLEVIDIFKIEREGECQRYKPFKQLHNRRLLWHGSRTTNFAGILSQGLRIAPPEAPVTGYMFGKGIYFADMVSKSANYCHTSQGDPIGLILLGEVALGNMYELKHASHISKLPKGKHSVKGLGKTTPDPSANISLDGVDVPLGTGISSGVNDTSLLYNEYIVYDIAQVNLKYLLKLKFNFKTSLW
details: read-out: PARP-1 (Ki); Table 3; H analogs versus para-F analogs
pKi: −log10 of the molar value.
endpoint_label: pKi

[
  {
    "compound": "NC(=O)C1CCN(C(=O)c2cc(Cc3n[nH]c(=O)c4c3CCCC4)ccc2F)CC1 [drawing 49]",
    "meas_value": 8.57
  },
  {
    "compound": "O=C1CCCN1c1cccc(Cc2n[nH]c(=O)c3c2CCCC3)c1 [drawing 16]",
    "meas_value": 7.40
  },
  {
    "compound": "O=C(c1cc(Cc2n[nH]c(=O)c3c2CCCC3)ccc1F)N1CCN(c2ccccc2Cl)CC1 [drawing 37]",
    "meas_value": 8.30
  },
  {
    "compound": "O=C(c1cc(Cc2n[nH]c(=O)c3c2CCCC3)ccc1F)N1CCN(c2ccc(F)cc2)CC1 [drawing 41]",
    "meas_value": 8.40
  },
  {
    "compound": "NC(=O)C1CCCN(C(=O)c2cc(Cc3n[nH]c(=O)c4c3CCCC4)ccc2F)C1 (centres unmarked) [drawing 45]",
    "meas_value": 8.52
  },
  {
    "compound": "NC(=O)C1CCN(C(=O)c2cccc(Cc3n[nH]c(=O)c4c3CCCC4)c2)CC1 [drawing 48]",
    "meas_value": 8.30
  },
  {
    "compound": "O=C(CCCC(=O)Nc1cccc(Cc2n[nH]c(=O)c3c2CCCC3)c1)Nc1ccccc1 [drawing 20]",
    "meas_value": 8.49
  },
  {
    "compound": "O=C(c1cc(Cc2n[nH]c(=O)c3c2CCCC3)ccc1F)N1CCN(c2ccccc2F)CC1 [drawing 39]",
    "meas_value": 7.89
  }
]

---

system: Recombinant Human Poly(ADP-Ribose) Polymerase (PARP), PARP-1 (Homo sapiens (Human))
details: read-out: PARP-1 (Ki); Table 1; text calls the values EC50s
endpoint_label: Ki (µM)

[
  {
    "compound": "Nc1cc(Cc2n[nH]c(=O)c3cccnc23)ccc1F",
    "meas_value": 1.88
  },
  {
    "compound": "O=C(c1cc(Cc2n[nH]c(=O)c3c2CCCC3)ccc1F)N1CCN(c2ccccn2)CC1",
    "meas_value": 0.002
  },
  {
    "compound": "CC(C)C(=O)N1CCN(C(=O)c2cc(Cc3n[nH]c(=O)c4c3CCCC4)ccc2F)CC1",
    "meas_value": 0.001
  },
  {
    "compound": "CN(C)CCCNC(=O)c1cccc(Cc2n[nH]c(=O)c3c2CCCC3)c1",
    "meas_value": 0.032
  },
  {
    "compound": "CC(C)S(=O)(=O)Nc1cccc(Cc2n[nH]c(=O)c3c2CCCC3)c1",
    "meas_value": 0.157
  },
  {
    "compound": "O=C(Nc1cccc(Cc2n[nH]c(=O)c3c2CCCC3)c1)c1cccc2ccccc12",
    "meas_value": 0.096
  },
  {
    "compound": "CCc1cccc(NC(=O)c2cccc(Cc3n[nH]c(=O)c4c3CCCC4)c2)c1",
    "meas_value": 0.099
  },
  {
    "compound": "CN(C)CCNC(=O)c1cccc(-c2cc(CCc3n[nH]c(=O)c4c3CCCC4)ccc2F)c1",
    "meas_value": 1.14
  },
  {
    "compound": "CCN(CCNC(=O)N1CCCC1)C(=O)c1cc(Cc2n[nH]c(=O)c3c2CCCC3)ccc1F",
    "meas_value": 0.0027
  },
  {
    "compound": "O=C(c1cscn1)N1CCN(C(=O)c2cc(Cc3n[nH]c(=O)c4c3CCCC4)ccc2F)CC1",
    "meas_value": 0.0011
  },
  {
    "compound": "O=C(Nc1cccc(Cc2n[nH]c(=O)c3c2CCCC3)c1)c1cc(F)cc(F)c1",
    "meas_value": 0.154
  },
  {
    "compound": "O=C(Nc1cccc(Cc2n[nH]c(=O)c3c2CCCC3)c1)c1ncccc1O",
    "meas_value": 0.065
  },
  {
    "compound": "O=C(c1cc[nH]n1)N1CCN(C(=O)c2cc(Cc3n[nH]c(=O)c4c3NCCC4)ccc2F)CC1",
    "meas_value": 0.0006
  },
  {
    "compound": "Cc1ccc(NC(=O)c2cccc(Cc3n[nH]c(=O)c4c3CCCC4)c2)cc1F",
    "meas_value": 0.12
  },
  {
    "compound": "O=C(COc1ccccc1)N1CCNC(Cc2n[nH]c(=O)c3c2CCCC3)C1 (stereo not drawn)",
    "meas_value": 0.116
  },
  {
    "compound": "O=C(CCOc1ccccc1)Nc1cccc(Cc2n[nH]c(=O)c3c2CCCC3)c1",
    "meas_value": 0.006
  },
  {
    "compound": "O=C(c1cc(Cc2n[nH]c(=O)c3c2CCCC3)ccc1F)N1CCN(C(=O)c2cccnc2Cl)CC1",
    "meas_value": 0.0015
  },
  {
    "compound": "Cc1cccc(OCC(=O)Nc2cccc(Cc3n[nH]c(=O)c4c3CCCC4)c2)c1",
    "meas_value": 0.074
  },
  {
    "compound": "O=C1CNC(=O)N1c1cc(Cc2n[nH]c(=O)c3c2CCCC3)ccc1F",
    "meas_value": 0.0007
  },
  {
    "compound": "COc1cc(C(=O)Nc2cccc(Cc3n[nH]c(=O)c4c3CCCC4)c2)ccc1C",
    "meas_value": 0.06
  },
  {
    "compound": "O=C(c1cc(Cc2n[nH]c(=O)c3c2CCCC3)ccc1F)N1CCN(C(=O)C2CCCCC2)CC1",
    "meas_value": 0.0025
  },
  {
    "compound": "CCCNC(=O)Nc1cc(Cc2n[nH]c(=O)c3c2CCCC3)ccc1F",
    "meas_value": 0.191
  },
  {
    "compound": "O=C(c1ccccc1)C1CCN(C(=O)c2cc(Cc3n[nH]c(=O)c4c3NCCC4)ccc2F)CC1",
    "meas_value": 0.0018
  },
  {
    "compound": "O=C(c1cc(Cc2n[nH]c(=O)c3c2NCCC3)ccc1F)N1CCN(CCO)CC1",
    "meas_value": 0.004
  },
  {
    "compound": "O=C(CN1CCN(C(=O)c2cc(Cc3n[nH]c(=O)c4c3NCCC4)ccc2F)CC1)N1CCCC1",
    "meas_value": 0.004
  },
  {
    "compound": "O=C(c1ccco1)N1CCN(C(=O)c2cc(Cc3n[nH]c(=O)c4c3NCCC4)ccc2F)CC1",
    "meas_value": 0.0008
  },
  {
    "compound": "CC1(C(=O)Nc2cccc(Cc3n[nH]c(=O)c4c3CCCC4)c2)CC1",
    "meas_value": 0.076
  },
  {
    "compound": "CO[C@@H](C(=O)Nc1cccc(Cc2n[nH]c(=O)c3c2CCCC3)c1)c1ccccc1",
    "meas_value": 0.531
  },
  {
    "compound": "O=C(NCCc1ccc(F)cc1)c1cccc(Cc2n[nH]c(=O)c3c2CCCC3)c1",
    "meas_value": 0.044
  },
  {
    "compound": "O=C(c1cc[nH]n1)N1CCN(C(=O)c2cc(Cc3n[nH]c(=O)c4c3CCCC4)ccc2F)CC1",
    "meas_value": 0.0011
  },
  {
    "compound": "CS(=O)(=O)c1cccc(-c2cc(Cc3n[nH]c(=O)c4c3CCCC4)ccc2F)c1",
    "meas_value": 0.085
  },
  {
    "compound": "O=C(NC1CCN(C(=O)c2cc(Cc3n[nH]c(=O)c4c3NCCC4)ccc2F)CC1)c1ccncc1",
    "meas_value": 0.001
  },
  {
    "compound": "CC(C)(C)OC(=O)N1CCN(C(=O)c2cc(Cc3n[nH]c(=O)c4c3NCCC4)ccc2F)[C@H](c2ccccc2)C1",
    "meas_value": 0.025
  }
]

---

Below is a list of entries, each paired with its recorded pKi value.
system: Recombinant Human Poly(ADP-Ribose) Polymerase (PARP), PARP-1 (Homo sapiens (Human))
details: read-out: PARP-1 (Ki); Table 1; text calls the values EC50s
pKi: −log10 of the molar value.
endpoint_label: pKi

[
  {
    "molecule": "CCNC(=O)c1cccc(Cc2n[nH]c(=O)c3c2CCCC3)n1",
    "meas_value": 6.91
  },
  {
    "molecule": "O=C(c1cc(Cc2n[nH]c(=O)c3c2CCCC3)ccc1F)N1CCN(S(=O)(=O)c2ccccc2)CC1",
    "meas_value": 8.89
  },
  {
    "molecule": "O=c1[nH]nc(Cc2cccc(-c3cccc(CNC4CCC4)c3)c2)c2c1CCCC2",
    "meas_value": 7.49
  },
  {
    "molecule": "CC(=O)Nc1cccc(-c2cccc(C(C)Cc3n[nH]c(=O)c4c3CCCC4)c2)c1 (stereo not shown)",
    "meas_value": 5.66
  }
]

Reference for the values: patent US9283222B2
